molecular target: 5HT1A receptor (Rattus norvegicus, UniProt P19327)
Sequence (P19327 whole entry): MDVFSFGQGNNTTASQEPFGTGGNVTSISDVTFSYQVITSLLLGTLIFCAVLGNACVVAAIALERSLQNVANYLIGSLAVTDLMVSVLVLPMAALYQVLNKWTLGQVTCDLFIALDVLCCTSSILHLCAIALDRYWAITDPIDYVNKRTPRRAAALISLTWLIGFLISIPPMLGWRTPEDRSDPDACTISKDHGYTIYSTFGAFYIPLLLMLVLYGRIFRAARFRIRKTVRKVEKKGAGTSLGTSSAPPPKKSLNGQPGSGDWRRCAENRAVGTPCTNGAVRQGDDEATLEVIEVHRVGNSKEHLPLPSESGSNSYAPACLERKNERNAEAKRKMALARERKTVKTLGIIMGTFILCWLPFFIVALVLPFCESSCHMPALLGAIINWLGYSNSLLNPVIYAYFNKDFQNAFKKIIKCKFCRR
Readout Kind: IC50 (nM)
Return type: number; implicit unit nM.

Study these solved cases before continuing.
COc1ccccc1N1CCN(CCn2c(=O)c3csc4c3n(c2=O)CCC4N)CC1 (stereo not drawn); 50
O=C1CCn2c(=O)n(CCCCCN3CCN(c4cccc(C(F)(F)F)c4)CC3)c(=O)c3csc1c32; 52
COc1ccccc1N1CCN(CCn2c(=O)c3scc4c3n(c2=O)CCC4=O)CC1; 66
COc1ccccc1N1CCN(CCn2c(=O)c3csc4c3n(c2=O)CCC4OC(=O)c2ccccc2)CC1 (stereo not drawn); 130
O=C1CCn2c(=O)n(CCN3CCN(c4cccc(C(F)(F)F)c4)CC3)c(=O)c3csc1c32; 28

Query block: Looking for the measured IC50 of `CON=C1CCCn2c(=O)n(CCN3CCN(c4ccccc4OC)CC3)c(=O)c3csc1c32` , can you help?
Result block: 70
